Target: T1, TCE-39 (anti-CD3 scFv P41S, A49G, N87S, L150F, T151S, G163R, P175A, K181T, T200V, A202D, L208I, G211N, L217I, …)
T1 construct: scFv on the Fab heavy chain
Assay: competition ELISA, TCE on captured CD3
Where no end group is shown, it is not given here.
measurement-label: pIC50
Kindly note that pIC50 refers to -log10 of the concentration in mol/L and answer with the value alone.

Give the reported value of pIC50 for this record: YLCGPDADETLACY (cysteine pairing not given here; also: biotinylated, site not given here, mask peptide for the CD3 scFv) [Peptide-76] 5.55

Give the reported value of pIC50 for this record: VYCGPEFDESVGCA (cysteine pairing not given here; also: biotinylated, site not given here, mask peptide for the CD3 scFv) [Peptide-73] 7.40
